# Measurement protocol: Tested for inhibition of Uridine Phosphorylase (UrdPase) in murine liver
pIC50: −log10 of the molar value.
Classify as follows. Reported pIC50 greater than or equal to 8: Yes. Reported pIC50 below: No.

Molecule smiles: O=c1[nH]c(=O)n(COC(CO)CO)cc1Cc1cccc(Oc2cccc(Cl)c2)c1
Class assignment: Yes

Molecule smiles: O=c1[nH]c(=O)n(COCCO)cc1Cc1cccc(Oc2ccc(Cl)cc2)c1
Class assignment: No

Molecule smiles: COc1ccc(Oc2cccc(Cc3cn(COCCO)c(=O)[nH]c3=O)c2)cc1
Class assignment: No

Molecule smiles: O=c1[nH]c(=O)n(COC(CO)CO)cc1Cc1cccc(Oc2ccc(F)cc2)c1
Class assignment: No

Molecule smiles: COc1cccc(Oc2cccc(Cc3cn(COCCO)c(=O)[nH]c3=O)c2)c1
Class assignment: No
